Biological target: human NNMT (Homo sapiens)
Sequence (P40261 whole entry): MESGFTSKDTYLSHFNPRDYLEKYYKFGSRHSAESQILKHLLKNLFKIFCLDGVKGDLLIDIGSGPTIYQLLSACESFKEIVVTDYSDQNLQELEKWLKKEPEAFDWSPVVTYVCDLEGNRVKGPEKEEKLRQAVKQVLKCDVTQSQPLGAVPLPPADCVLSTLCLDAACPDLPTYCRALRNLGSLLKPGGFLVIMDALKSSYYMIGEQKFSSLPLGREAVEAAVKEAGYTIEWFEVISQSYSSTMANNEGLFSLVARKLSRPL
Test: hNNMT enzymatic modulation, RapidFire SPE LC/MS assay (Lilly)
Format: biochemical
Conditions: automated solid-phase extraction and LC-MS; read-out: IC50 against human NNMT

>  <COMPOUND>
COC(=O)CCC(C)C1CCC2C3C(N)CC4CC(OC(C)=O)CCC4(C)[C@H]3CC(N)C12C (stereo in doubt)

>  <UNIT TAG>
nM

>  <IC50>
1600

$$$$

###

Target: SET1b Complex (Homo sapiens, UniProt Q9UPS6)
Construct: purchased Reaction Biology Corporation
Test: Methyltransferase Hot Spot radioisotope assay, SET1b Complex
Type: biochemical
Conditions: text and Fig. 4D curve fit; read-out: IC50 for SET1b Complex
pIC50: −log10 of the molar value.
QUANTITY: pIC50

>  <MOLECULE>
COC(=O)CCC(C)C1CCC2C3C(N)CC4CC(OC(C)=O)CCC4(C)[C@H]3CC(N)C12C (stereo in doubt)

>  <READOUT NUMBER>
3.92

$$$$
